- Tested target: recombinant purified human IL-12 p70 (human) (UniProt P29459)
- Sequence (chain, as listed by the source, form in doubt, chain 1 of 2): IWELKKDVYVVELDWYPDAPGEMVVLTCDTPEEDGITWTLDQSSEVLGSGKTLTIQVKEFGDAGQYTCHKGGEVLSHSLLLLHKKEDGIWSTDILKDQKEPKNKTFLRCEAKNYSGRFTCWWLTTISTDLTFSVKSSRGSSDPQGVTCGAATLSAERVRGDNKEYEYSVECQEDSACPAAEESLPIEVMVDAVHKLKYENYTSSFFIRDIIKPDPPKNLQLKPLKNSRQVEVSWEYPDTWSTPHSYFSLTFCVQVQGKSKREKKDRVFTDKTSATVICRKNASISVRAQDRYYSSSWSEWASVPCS
- Sequence (P29459 23-219, form in doubt, chain 2 of 2): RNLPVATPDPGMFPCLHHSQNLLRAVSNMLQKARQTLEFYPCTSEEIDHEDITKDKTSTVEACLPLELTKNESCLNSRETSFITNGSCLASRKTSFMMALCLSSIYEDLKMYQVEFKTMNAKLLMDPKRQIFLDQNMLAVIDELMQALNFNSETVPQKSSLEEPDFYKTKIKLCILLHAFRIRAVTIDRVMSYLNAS
- Procedure details: cell-based or functional assay
Average IC50 (nM) Human IL-12; PHA blast IFN-gamma induction assay listing for selected binders.
Provide the reading as a plain figure in nM.

Would you please look over these solved cases?
Ask | Give its Average IC50 (nM) Human IL-12; PHA blast IFN-gamma induction assay value. Item: 7G3 (antibody, V domains shown) VH: EVQLQQSGAEFVRSGASVKLSCTASGLNIKDYYIHWVKQRPEQVLDWIGWIDPENGYSEYAPRFQDKATMTADTSSNTAYLHLSSLTSEDTAVYYCNPGELARYFDYWGQGTTLTVSS VL: DIVLSQSPATLSVTPGDSVSLSCRASQSISKNLHWYQQKSHESPRLLIKYTSQSISGIPSRFSGSGSGTDFTLSINSVETEDFGMYFCQQSISWPLTFGAGTKLELKR
Reply | 0.047

Ask | Same question, 5E8 (antibody, V domains shown) VH: QIQLVQSGPELKKPGETVKISCKASGYSFTDYSMHWVKQAPGKGLKWMDWINTETGEPTYADDFKGRFAFSLETSASTAYLQINNLKNEDTATYFCSRRRYRAFDYWGQGTTLTVSS VL: SIVMTQSPKFLLVSAGDRVTITCKASQSVSNDVAWYQQKLGQSPKLLIYYASNRYTGVPDRFTGSGYGTDFTFTINTVQAEDLAVYFCQQDYTSPYTFGGGTKLEIQR this time
Reply | 12

// next item, Average IC50 (nM) Human IL-12; PHA blast IFN-gamma induction assay requested
Ask | Looking for the measured Average IC50 (nM) Human IL-12; PHA blast IFN-gamma induction assay of 8E1 (antibody, V domains shown) VH: EVKLVESGGGLVQPGGSRKLSCAASGFTFSDYGMVWVRQAPGKGLEWVASISSGSSNIYYADTVKGRFTISRDDPNNTLFLQMRSLRSEDTAMYYCARNPYWGQGTTLTVSS VL: DIVMTQSQKFMSTSVGDRVSVTCKASQNVGTNVAWYQQKPGQSPKGLIYSASHRYSGVPDRFAGSGSGTDFTLTISNVQSEDLAEYFCQQYNSYPLTFGGGTKLELKR , can you help?
Reply | 0.19
